Experiment: green autofluorescence of compounds with GSH beads – biophysical, 488/530 nm, flow cytometry, artefact control, profiling panel (AID 1776);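 note: glutathione beads carrying GST-tagged Bcl family fusion proteins plus one bare bead set; values are compound well signal with DMSO vehicle wells as background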
Settings: compound fluorescence 488/530 nm, at 10 µM, hits give high values
Hit rate of the full screen: of about 190,000 compounds, about 490 (0.26%) were called active. The list comes from a sample in which actives are over-represented; it also holds close analogues and randomly drawn compounds.
Give fluorescence (KMESF) for every item shown.

fluorescence (KMESF) lookup needed for "Cc1cccc(C(=O)OCC(=O)Nc2sc3c(c2C#N)CCC3)c1" , thanks.
5 (inactive)

// next record OCCC1CN(Cc2ccccc2-c2ccco2)CCN1Cc1ccsc1 (stereo unspecified)
17 (inactive)

// next record "CNc1ccc(NC(C)=O)cc1[N+](=O)[O-]"
13 (inactive)

// next record "COc1ccc(COC(=O)N/N=C(\C)CC(=O)Nc2ccc(Cl)cc2)cc1"
5 (inactive)

// next record "CCNc1nc(NC(C)C)nc(N2CC(=O)N(CC(=O)OCC)C2=N)n1"
29 (inactive)

// next record "Cc1ccc2c(Cl)c(C(=O)Nc3nn[nH]n3)sc2c1"
15 (inactive)

// next record "COc1cc([C@H](Cc2ccccc2)NC(C)=O)oc(=O)c1"
18 (inactive)

// next record "O=c1[nH]c(-c2ccccc2)c(-c2ccccc2)[nH]1"
20 (inactive)

// next record CC1CCCCC1NC(=O)CN1CCC(O)(c2ccc3c(c2)OCO3)CC1 (stereo unspecified)
15 (inactive)

// next record "C/C(=N\NC(=O)NC1CCCCC1)c1ccc(OC(F)F)cc1OC(F)F"
14 (inactive)

// next record "Cc1ccnc2nc(C(=O)Nc3nnc(-c4ccccc4)o3)nn12"
14 (inactive)

// next record O=C(Nc1cc(Cl)cc(Cl)c1)C(NCCCO)c1ccccc1 (stereo unspecified)
18 (inactive)

// next record CCOC(=O)C1=C(C)NC(=O)NC1c1ccccc1 (stereo unspecified)
17 (inactive)

// next record CC(C)C1C2=C(CC(C)(C)CC2=O)ON1c1ccccc1 (stereo unspecified)
52 (inactive)

// next record "Cc1cc(=O)[nH]c(SCc2cc(Cl)ccc2OC(F)F)n1"
270 (active)

// next record "O=C(c1ccc(OC2CCN(C(=O)c3cccnc3)CC2)cc1)N1CCCCCC1"
11 (inactive)

// next record COc1ccc(CN2C(=O)CC(Cc3ccc(C)cc3)C2=O)cc1OC (stereo unspecified)
10 (inactive)

// next record "CC(=O)Cc1nsc(NC(=O)c2ccc(Cl)cc2Cl)n1"
10 (inactive)

// next record CCOC(=O)C1=C(C)NC(SC)=NC1c1ccccc1 (stereo unspecified)
34 (inactive)

// next record S=C(Nc1cccc(Br)c1)N1CCn2cccc2C1c1cccnc1 (stereo unspecified)
15 (inactive)

// next record "O=C(/C=C/c1cn(-c2ccccc2)nc1-c1ccc2c(c1)OCCO2)NCCCN1CCOCC1"
15 (inactive)

// next record "Cc1ccccc1-n1nnnc1SCCCC(=O)c1ccc(F)cc1"
11 (inactive)

// next record "CCOC(=O)C1=C(C)NC(C)=C(C(=O)OCC)C1c1ccccn1"
252 (active)

// next record "Cc1cc(=O)[nH]c(SCc2cccc(F)c2)n1"
31 (inactive)

// next record "CCS(=O)(=O)c1ccc(C(=O)NC)c(Cl)c1Cl"
12 (inactive)

// next record "COc1cccc(NC(=O)COC(=O)CCOc2ccccc2OC)c1"
10 (inactive)

// next record "COc1ccc(/C=C2/SC(=O)N(CCCCCC(=O)Nc3ccccc3C(=O)O)C2=S)cc1"
9 (inactive)

// next record "OCC(CO)(CO)NCc1ccc(-c2ccccc2)cc1"
236 (active)

// next record "COc1ccccc1N(C)S(=O)(=O)c1ccc(Cl)c(C(=O)N2CCC(C(N)=O)CC2)c1"
11 (inactive)

// next record "O=C(COC(=O)CCCSc1nc2ccccc2[nH]1)Nc1ccc(Oc2ccccc2)cc1"
11 (inactive)

// next record "COc1ccccc1OCCC(=O)OCC(=O)NCc1ccccc1"
16 (inactive)

// next record "O=C(Cc1ccc(-c2ccccc2)cc1)NC(c1ccccc1)c1ccccc1"
10 (inactive)

// next record "O=C(COC(=O)c1ccc(Cl)nc1)NCc1cccs1"
24 (inactive)

// next record "COc1ccccc1-n1c(=S)[nH]c2c(sc(=S)n2-c2ccc(C)cc2C)c1=O"
25 (inactive)

// next record Cc1cc([N+](=O)[O-])ccc1NC(=O)C1CCCO1 (stereo unspecified)
8 (inactive)

// next record "O=C(CC12CC3CC(CC(C3)C1)C2)NCc1ccco1"
15 (inactive)

// next record O=C(CSc1nnnn1-c1ccc(O)cc1)N1N=C(c2ccc3ccccc3c2)CC1c1ccccc1 (stereo unspecified)
16 (inactive)

// next record "NC(=O)c1ccc(N2CCOCC2)nc1"
10 (inactive)

// next record "COc1ccccc1-c1noc(CSc2nc(C)cc(=O)[nH]2)n1"
20 (inactive)

// next record Cc1cc(C)cc(C(=O)NC2C(=O)N3C(C(=O)O)=C(CSc4nnc(C)s4)CSC23)c1 (stereo unspecified)
12 (inactive)

// next record "Cc1ccc(C(=O)NN(CCC#N)C2=NS(=O)(=O)c3ccccc32)cc1"
20 (inactive)

// next record "CC(C)(C)c1ccc(NC(=O)COC(=O)CCc2nc3ccccc3c(=O)[nH]2)cc1"
11 (inactive)

// next record "Cc1cc([N+](=O)[O-])ccc1NC(=O)c1ccc(NC(=O)C(C)C)cc1"
17 (inactive)

// next record "COc1ccccc1CNC(=O)CN1CCC(n2cnc3cc(F)ccc32)CC1"
10 (inactive)

// next record "CCOC(=O)C1(Cc2cccc(OC)c2)CCN(Cc2csc(C(C)=O)c2)CC1"
17 (inactive)

// next record "COc1ccccc1OCCC(=O)OCC(=O)NC(=O)NC(C)(C)C"
260 (active)

* * *

Assay: green autofluorescence of compounds with GSH beads – biophysical, 488/530 nm, flow cytometry, artefact control, profiling panel (AID 1776);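 note: glutathione beads carrying GST-tagged Bcl family fusion proteins plus one bare bead set; values are compound well signal with DMSO vehicle wells as background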
Conditions: compound fluorescence 488/530 nm, at 10 µM, hits give high values
Out of some 190,000 compounds screened, about 490 (0.26%) were called active. Many of the other results were omitted from the sample, so actives are more common in it than they were.
Hi, to clarify the labels: rule met covers fluorescence (KMESF) from 20 upward, rule not met covers anything below 20.

Check if fluorescence (KMESF) >= 20 (inclusive). Item: "Cc1nccc(-c2ccc(-n3c(C)ccc3C)cc2)n1"
rule not met

// next record "COc1ccc(NC(=O)Cn2c(=O)n(Cc3ccco3)c(=O)c3ccccc32)cc1"
rule not met

// next record "Cc1cccc(N2Cc3ccccc3C2=NC(=O)c2ccc(Cl)nc2)c1"
rule not met

// next record "O=C(CSc1nc2ccccc2[nH]1)Nc1nc(-c2ccccc2)c(-c2ccccc2)o1"
rule not met

// next record "O=C(/C=C/c1ccc(F)cc1)NC(=S)NNC(=O)c1cccnc1"
rule not met

// next record "O=S(=O)(Nc1ccccc1N1CCOCC1)c1ccc(Cl)s1"
rule met

// next record "O=C(COc1ccc(NC(=O)c2ccccc2[N+](=O)[O-])cc1)c1ccc(F)cc1"
rule met

// next record "COc1cc(NC(=O)c2ccccc2NS(=O)(=O)c2ccc(Cl)s2)cc(OC)c1"
rule not met

// next record CSCC(=O)N1CCCC(C(=O)c2cc(F)ccc2F)C1 (stereo unspecified)
rule not met

// next record "CN(c1ccccc1)c1ccc(/C=c2\s/c(=C(/C#N)C(=O)C(C)(C)C)n(Cc3ccco3)c2=O)cc1"
rule met

// next record "CCOc1ccc(Br)cc1S(=O)(=O)N1CCC(C(=O)O)CC1"
rule not met

* * *

Experiment: green autofluorescence of compounds with GSH beads – biophysical, 488/530 nm, flow cytometry, artefact control, profiling panel (AID 1776);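 note: glutathione beads carrying GST-tagged Bcl family fusion proteins plus one bare bead set; values are compound well signal with DMSO vehicle wells as background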
Settings: compound fluorescence 488/530 nm, at 10 µM, hits give high values
About 490 (0.26%) of roughly 190,000 compounds were called active. Only a selection was taken, and actives are over-represented in it overall.
Hi, to clarify the labels: 1 (yes) covers fluorescence (KMESF) from 10 upward, 0 (no) covers anything below 10.

Check if fluorescence (KMESF) >= 10 (inclusive). Item: "Cc1ccc(Cl)cc1NC(=O)COC(=O)CC(C)(C)C"
1 (yes)

// next record "O=C(COC(=O)C1CCCCC1)Nc1ccc([N+](=O)[O-])cc1"
1 (yes)

// next record CCC(C)c1ccc(NC(=S)NCc2ccccn2)cc1 (configuration not stated)
1 (yes)

// next record "Cc1ccc2nc3n(c(=O)c2c1)CCC3"
1 (yes)

// next record "Nc1nc(SCC(=O)NN(c2ccccc2)c2ccccc2)n[nH]1"
0 (no)

// next record "CN(C)c1ccnc2sc(C(=O)c3ccccc3)c(N)c12"
0 (no)

// next record "O=c1c2c(nc3n1CCCCC3)sc1c(O)cccc12"
0 (no)

// next record "O=C(c1cnn(-c2ccc(Cl)cc2)c1)c1ccccc1O"
1 (yes)

// next record "CNC(=O)CSc1nnnn1-c1ccc(C)cc1C"
1 (yes)

// next record "Cc1nn(C)c(C)c1S(=O)(=O)N1CCC(CO)(Cc2ccc(Cl)cc2)CC1"
1 (yes)

// next record "Cc1ccc(CCC(=O)Nc2ncc(Cc3cc(Cl)ccc3Cl)s2)o1"
0 (no)

// next record "Cc1ccc(CN(Cc2cccnc2)C(=S)Nc2cc(Cl)ccc2C)cc1"
1 (yes)
